system: PA-1; experiment: Growth inhibition of human PA1 cells after 24 hrs by MTT assay; format: functional, cell-based; conditions: PA-1, 24 h
Threshold 20 µM. IC50 below it: class 1. IC50 at it or above: class 0.

Example entries and their recorded answers appear below.
Is 20 µM strictly greater than the compound's reported IC50? compound: O=C1c2nccnc2C(=O)N1CCCC1OCC2(CO1)COC(CCCN1C(=O)c3nccnc3C1=O)OC2 (stereo unspecified)
class 0

Regarding O=C1c2nc[nH]c2C(=O)N1CCN1C(=O)c2nc[nH]c2C1=O , kindly confirm whether its IC50 is beneath 20 µM.
class 1

Hi there! Is IC50 for O=C1C2CCCCC2C(=O)N1CCOCCOCCN1C(=O)C2CCCCC2C1=O (stereo unspecified) below 20 µM, do you know?
class 1

Is the reported IC50 for O=C1C2CC=CCC2C(=O)N1CCOCCOCCN1C(=O)C2CC=CCC2C1=O (stereo unspecified) strictly below 20 µM?
class 1

In plain terms, does O=C1C2CCCCC2C(=O)N1c1ccc(S(=O)(=O)c2ccc(N3C(=O)C4CCCCC4C3=O)cc2)cc1 (stereo unspecified) come in under 20 µM for IC50?
class 0

Next up:
Does this compound meet the criterion IC50 < 20 µM? O=C1C2CC=CCC2C(=O)N1c1ccc(S(=O)(=O)c2ccc(N3C(=O)C4CC=CCC4C3=O)cc2)cc1 (stereo unspecified)
class 0

====

test system: HEK-293T; test: Growth inhibition of HEK293T cells after 24 hrs by MTT assay; type: cell-based; settings: Homo sapiens
outcome_measure: IC50 (µM)
# unit: µM | format: bare number

# example entries with known answers
// fetch HEK-293T IC50 for O=C1C2CCCCC2C(=O)N1c1ccc(S(=O)(=O)c2ccc(N3C(=O)C4CCCCC4C3=O)cc2)cc1 (centres undefined)
43.6

Observed IC50 on HEK-293T for O=C1c2nccnc2C(=O)N1CCCC1OCC2(CO1)COC(CCCN1C(=O)c3nccnc3C1=O)OC2 (centres undefined) , please.
55.9

Any idea what IC50 came out for O=C1C2CC=CCC2C(=O)N1CCOCCOCCN1C(=O)C2CC=CCC2C1=O (centres undefined) on HEK-293T?
44.2

Form: Entry = O=C1c2nc[nH]c2C(=O)N1CCN1C(=O)c2nc[nH]c2C1=O | System = HEK-293T | IC50 = ____
62.7

---
Give recorded IC50 with HEK-293T for the following compound: O=C1C2CC=CCC2C(=O)N1c1ccc(S(=O)(=O)c2ccc(N3C(=O)C4CC=CCC4C3=O)cc2)cc1 (centres undefined)
42.2
